# target_or_system: AR protein (Homo sapiens, UniProt P10275)
# Construct: degradation activity of the compounds disclosed in the present disclosure on AR protein in VCaP cells; host or cells: VCaP
# Sequence (P10275 whole entry): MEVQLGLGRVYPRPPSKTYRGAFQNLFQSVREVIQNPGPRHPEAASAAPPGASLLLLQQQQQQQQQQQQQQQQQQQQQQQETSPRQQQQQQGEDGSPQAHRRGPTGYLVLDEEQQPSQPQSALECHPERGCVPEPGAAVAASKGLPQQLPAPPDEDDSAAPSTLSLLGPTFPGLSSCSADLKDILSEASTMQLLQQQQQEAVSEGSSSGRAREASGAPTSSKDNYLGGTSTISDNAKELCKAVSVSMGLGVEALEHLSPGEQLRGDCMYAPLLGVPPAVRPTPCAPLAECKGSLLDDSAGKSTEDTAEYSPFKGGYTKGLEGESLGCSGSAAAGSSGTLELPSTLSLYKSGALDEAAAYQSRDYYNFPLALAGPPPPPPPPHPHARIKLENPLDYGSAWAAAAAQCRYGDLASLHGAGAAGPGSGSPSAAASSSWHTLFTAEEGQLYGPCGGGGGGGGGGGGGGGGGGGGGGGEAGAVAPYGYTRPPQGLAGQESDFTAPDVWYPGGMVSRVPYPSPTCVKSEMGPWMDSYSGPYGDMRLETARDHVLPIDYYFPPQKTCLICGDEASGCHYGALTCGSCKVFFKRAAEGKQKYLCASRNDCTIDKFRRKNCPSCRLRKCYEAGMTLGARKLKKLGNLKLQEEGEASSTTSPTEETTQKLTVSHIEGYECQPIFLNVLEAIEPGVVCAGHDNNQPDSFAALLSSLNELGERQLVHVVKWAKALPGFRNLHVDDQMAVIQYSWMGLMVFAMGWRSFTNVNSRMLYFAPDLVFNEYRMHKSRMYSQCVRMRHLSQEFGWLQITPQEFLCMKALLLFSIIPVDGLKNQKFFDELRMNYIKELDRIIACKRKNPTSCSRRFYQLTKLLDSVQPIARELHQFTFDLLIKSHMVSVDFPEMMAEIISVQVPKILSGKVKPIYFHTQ
# method: Degradation of AR protein in VCaP cells (Western blot)
# Format: cell-based
# setup_conditions: compound at 10 nM, 8 hours, read-out: Degradation rate of the AR protein in VCaP cells, 10 nM (%)
metric_name: inhibition at 0.01 µM (%)
Report only the number, with the unit % understood.

- compound: "N#Cc1ccc(O[C@H]2CC[C@H](NC(=O)c3ccc(N4CCN(CC(=O)N5CCC6(CC5)COc5c6ccc6c5CN(C5CCC(=O)NC5=O)C6=O)CC4)nn3)CC2)cc1Cl (stereo partly shown)"
  metric_name: "inhibition at 0.01 µM"
  readout_value: 29
- compound: "N#Cc1ccc(O[C@H]2CC[C@H](NC(=O)c3ccc(N4CC5(CC(N6CCC7(CCc8cc9c(cc8O7)C(=O)N(C7CCC(=O)NC7=O)C9=O)CC6)C5)C4)nn3)CC2)cc1Cl (stereo partly shown)"
  metric_name: "inhibition at 0.01 µM"
  readout_value: 58
- compound: "N#Cc1ccc(O[C@H]2CC[C@H](NC(=O)c3ccc(N4CCC(CC5CC5)(CN5CCC6(CC5)COc5c6ccc6c5CN(C5CCC(=O)NC5=O)C6=O)CC4)nn3)CC2)cc1Cl (stereo partly shown)"
  metric_name: "inhibition at 0.01 µM"
  readout_value: -4
- compound: "N#Cc1ccc(O[C@H]2CC[C@H](NC(=O)c3ccc(N4CCC(CN5CCC6(CC5)Oc5cc7c(cc5CC6(F)F)C(=O)N(C5CCC(=O)NC5=O)C7=O)CC4)nn3)CC2)cc1Cl (stereo partly shown)"
  metric_name: "inhibition at 0.01 µM"
  readout_value: 59
- compound: "CC1(C)[C@H](NC(=O)c2ccc(N3CCC(F)(CN4CCC5(CC4)COc4c5ccc5c4CN(C4CCC(=O)NC4=O)C5=O)CC3)nn2)C(C)(C)[C@H]1Oc1ccc(C#N)c(C(F)(F)F)c1 (stereo partly shown)"
  metric_name: "inhibition at 0.01 µM"
  readout_value: -46
- compound: "N#Cc1ccc(O[C@H]2CC[C@H](NC(=O)c3cnc(N4CCC(F)(CN5CCC6(CC5)COc5c6ccc6c5CN(C5CCC(=O)NC5=O)C6=O)CC4)nc3)CC2)cc1Cl (stereo partly shown)"
  metric_name: "inhibition at 0.01 µM"
  readout_value: 62
- compound: "N#Cc1ccc(O[C@H]2CC[C@H](NC(=O)c3ccc(N4CC(N5CCC6(CCc7cc8c(cc7O6)C(=O)N(C6CCC(=O)NC6=O)C8)CC5)C4)nn3)CC2)cc1Cl (stereo partly shown)"
  metric_name: "inhibition at 0.01 µM"
  readout_value: 39
- compound: "CC1(CN2CCC3(CCc4cc5c(cc4O3)C(=O)N(C3CCC(=O)NC3=O)C5=O)CC2)CCN(c2ccc(C(=O)N[C@H]3CC[C@H](Oc4ccc(C#N)c(Cl)c4)CC3)nn2)CC1 (stereo partly shown)"
  metric_name: "inhibition at 0.01 µM"
  readout_value: 39

Exercise: Give its inhibition at 0.01 µM value. Item: CC1(C)[C@H](NC(=O)c2ccc(N3CCC(CN4CCC5(CC4)COc4c5ccc5c4CN(C4CCC(=O)NC4=O)C5=O)CC3)nn2)C(C)(C)[C@H]1Oc1ccc(C#N)c(Cl)c1 (stereo partly shown)
Solution: 28

Exercise: Need inhibition at 0.01 µM, item N#Cc1ccc(O[C@H]2CC[C@H](NC(=O)c3ccc(N4CCC(F)(CN5CCC6(CC5)COc5c6ccc6c5CN(C5CCC(=O)NC5=O)C6=O)CC4)nc3)CC2)cc1Cl (stereo partly shown)
Solution: 54
